- Test system: SK-MEL-28
- ASSAY_PROTOCOL: NCI tumour cell line growth inhibition, 48 h
Activity calls are given as the source filed them. Rule as the data show it: active = GI50 up to about 1.1 µM and inactive = higher.
Parameter call: string, one of active, inactive

Cc1cc(-c2nc3ccc(F)cc3s2)ccc1NC(=O)[C@H](C)N    inactive
CCC(C)(C)/C(CC(O)(C(F)(F)F)C(F)(F)F)=N\O    inactive

What outcome does the record of this test show for `C(/C=N/c1ccccc1)=C(/Nc1ccccc1)C12CC3CC(CC(C3)C1)C2` ?
inactive

Would you kindly repeat that for `CCOC(=O)/C=C(/C(=O)OCC)n1ccc(=O)n(Cc2cnnn2CCCCOC(C)=O)c1=O` ?
inactive

Would you kindly repeat that for CCOC(=O)C1C(=O)CC(C)(O)C(C(=O)OCC)C1c1ccc(OC)cc1 (stereo unspecified) ?
inactive

Would you kindly repeat that for OCC(O)COCn1nncc1Cn1ncc2c(SCc3ccccc3)ncnc21 (stereo unspecified) ?
inactive

Would you kindly repeat that for `NCCCCN(CCCN)Cc1ccccc1` ?
inactive

Would you kindly repeat that for `Cc1c(C)c2c(c(N)c1C#N)C(=O)N(OS(=O)(=O)c1ccccc1)C2=O` ?
inactive

Would you kindly repeat that for `O=C1c2ccccc2C(=O)c2sc(Nc3cc(Cl)ccc3Cl)nc21` ?
inactive

Would you kindly repeat that for `O=C1CN(c2ccc(Cl)cc2)C(=O)CN1CCN1CC(=O)N(c2ccc(Cl)cc2)CC1=O` ?
inactive

Would you kindly repeat that for `CCOC(=O)c1c2ccccc2n2c(=O)n(-c3ccccc3)nnc12` ?
inactive

Would you kindly repeat that for `CN1C(=O)N/C(=C\c2ccc(S(=O)(=O)N/N=C/c3ccccc3)cc2)C1=O` ?
inactive

Would you kindly repeat that for `Cc1ccc(C)c2sc3cc(=O)ccc-3nc12` ?
inactive

Would you kindly repeat that for CC(OC(=O)C(CC(=O)OC(C)(C)C)NC(=O)OC(C)(C)C)C(=O)OCc1ccccc1 (stereo unspecified) ?
inactive

Would you kindly repeat that for `COC1=CCC=C(C[C@@H]2NCCc3cc(OC)c(OC)cc32)C1` ?
inactive

Would you kindly repeat that for `Nc1nc(-c2ccccc2)nc2c1[n+]([O-])c1ccccc1[n+]2[O-]` ?
inactive

Would you kindly repeat that for `Cn1nc(-c2ccccc2)c(C(=O)/C=C/c2ccccc2)c(N2CCCCC2)c1=O` ?
inactive

Would you kindly repeat that for O=C1OCC(O)=C1C(c1ccc(Cl)cc1)c1cc2c(cc1O)OCO2 (stereo unspecified) ?
inactive

Would you kindly repeat that for `CSc1ccc(NC(=O)Nc2cc(C)ccn2)cc1` ?
inactive
